Assay: Oral absorbability in dogs (drug concentration in plasma)
Format: in vivo, Male beagles (dog)
Conditions: dog, plasma; male beagles, oral 50 mg/kg, 1 hr; read-out: Concentration in plasma, Average
TEST_READOUT: concentration at 1 h (ng/mL)

* O=C(C(c1ccccc1)c1ccccc1)N1CCN(CC(O)COc2cccc3ncccc23)CC1.O=C(O)/C=C/C(=O)O (stereo not shown) | 13200

====

Assay: Oral absorbability test in mice (drug concentration in plasma)
Set-up: species or system 7-Week-old female CDF1 mice
Details: mouse, in vivo; female CDF1 mice, oral 109 mg/kg (equivalent molarity), 2.0 hr; read-out: Concentration in plasma, Average of 3 mice
TEST_READOUT: concentration at 2 h

• O=C(C(c1ccccc1)c1ccccc1)N1CCN(CC(O)COc2cccc3ncccc23)CC1.O=C(O)CC(O)C(=O)O (stereo not shown) = 11900 ng/mL
